Tested on: Wnt signaling
Assay: TopFlash reporter gene bioassay in SW480 cells
Format: cell-based
Conditions: Homo sapiens, SW480, TopFlash reporter gene assay, inhibition of Wnt signaling; read-out: RGA, IC50 (μM) TopF
Measurement Label: log10 IC50 (log10 of the value in µM)
A difference of one corresponds to tenfold IC50; all values are log10 with IC50 in µM.

A selection of reference data follows.
INSERT INTO assay_data (molecule, assayed_target, measurement_label, numeric_result) VALUES
  ('C=CCOc1cccc(CN2C[C@H]3N(C(=O)CN(CC=C)N3C(=O)NCc3ccccc3)[C@@H](Cc3ccc(O)cc3)C2=O)c1', 'Wnt signaling', 'log10 IC50', 0.30),
  ('C=CCN1CC(=O)N2[C@@H](Cc3ccc(O)cc3)C(=O)N(Cc3ccc(F)c4scnc34)C[C@@H]2N1C(=O)NCc1ccc(C#N)cc1', 'Wnt signaling', 'log10 IC50', 0.86),
  ('C=CCN1CC(=O)N2[C@@H](Cc3ccc(O)cc3)C(=O)N(Cc3cccc(C(=O)NCc4ccccc4)c3)C[C@@H]2N1C(=O)NCc1ccccc1', 'Wnt signaling', 'log10 IC50', -0.13),
  ('C=CCN1CC(=O)N2[C@@H](Cc3ccc(O)cc3)C(=O)N(Cc3cccc(-c4cccnc4F)c3)C[C@@H]2N1C(=O)NCc1ccccc1', 'Wnt signaling', 'log10 IC50', -0.59),
  ('C=CCN1CC(=O)N2[C@@H](Cc3ccc(O)cc3)C(=O)N(Cc3csc4cc(NC(C)=O)ccc34)C[C@@H]2N1C(=O)NCc1ccccc1', 'Wnt signaling', 'log10 IC50', 0.28);

Consider the record given below.
Query :: Record request: log10 IC50 value, item C=CCN1CC(=O)N2[C@@H](Cc3ccc(O)cc3)C(=O)N(Cc3cccc(C(=O)NNC(=O)OC(C)(C)C)c3)C[C@@H]2N1C(=O)NCc1ccccc1
Result :: 0.55

The measured values listed here are drawn from patent US8080657B2.
